# Tested on: human renal renin (Homo sapiens, UniProt P00797)
# Sequence (P00797 67-406): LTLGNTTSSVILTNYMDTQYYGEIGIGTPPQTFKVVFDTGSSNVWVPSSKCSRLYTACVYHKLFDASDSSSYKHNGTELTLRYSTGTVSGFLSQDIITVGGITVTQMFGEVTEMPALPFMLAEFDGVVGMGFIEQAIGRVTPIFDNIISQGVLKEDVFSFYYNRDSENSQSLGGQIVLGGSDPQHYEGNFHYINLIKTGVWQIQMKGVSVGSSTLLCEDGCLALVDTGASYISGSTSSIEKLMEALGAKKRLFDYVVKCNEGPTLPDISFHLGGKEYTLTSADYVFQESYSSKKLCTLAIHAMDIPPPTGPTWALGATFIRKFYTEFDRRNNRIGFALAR
pIC50: −log10 of the molar value.
Measured metric: pIC50

P = CC(C)C[C@H](NC(=O)[C@H](Cc1ccccc1)NC(=O)OC(C)(C)C)C(=O)N[C@@H](CC1CCCCC1)C(=O)C(F)(F)CN=[N+]=[N-] [Example 88]
Q = CC(C)(C)OC(=O)NC(Cc1ccccc1)C(=O)NC(Cc1cnc[nH]1)C(=O)N[C@@H](CC1CCCCC1)[C@@H](O)CCN=[N+]=[N-] (stereo partly drawn) [Example 125]
R = CC(C)CC(NC(=O)C(Cc1ccccc1)NC(=O)OC(C)(C)C)C(=O)N[C@@H](CC1CCCCC1)[C@@H](O)C(F)=CSC(C)C (stereo partly drawn) [Example 83(B)]
Prompt: Arrange the 3 compounds from largest to smallest pIC50. The reply should contain the labels ordered as requested.
Completion: P, Q, R
(P: 8.60, Q: 7.70, R: 7.30)

###

A short record of IC50 observed with human renal renin (Homo sapiens, UniProt P00797) follows.
Measured metric: IC50 (nM)

Prompt: Looking for the measured IC50 of CC(C)CCNC(=O)C(CC(O)C(CC(C)C)NC(=O)C(C)NC(=O)C(Cc1ccccc1)NC(=O)OC(C)(C)C)c1ccccc1 (centres unmarked) , can you help?
Completion: 3000

Prompt: Looking for the measured IC50 of CCCS(=O)(=O)CC(=O)NCC[C@H](O)[C@H](CC1CCCCC1)NC(=O)[C@H](Cc1cnc[nH]1)NC(=O)[C@H](Cc1ccccc1)NC(=O)OC(C)(C)C , can you help?
Completion: 20

Prompt: Looking for the measured IC50 of CC(C)C[C@H](NC(=O)C(Cc1cnc[nH]1)NC(=O)C(Cc1ccccc1)NC(=O)OC(C)(C)C)[C@@H](O)CCS(=O)(=O)CCc1ccccc1 (some centres unmarked) , can you help?
Completion: 80

I = CC(C)CCC(=O)NCC[C@H](O)[C@H](CC1CCCCC1)NC(=O)[C@H](Cc1cnc[nH]1)NC(=O)[C@H](Cc1ccccc1)NC(=O)OC(C)(C)C
II = CC(C)CCC(=O)NCC[C@H](O)[C@H](CC1CCCCC1)NC(=O)C(Cc1cscn1)NC(=O)C(Cc1ccccc1)NC(=O)OC(C)(C)C (mixture of isomers)
Prompt: For the two items I and II , which reports the higher IC50 value? Bench note: the answer is the label of the chosen record.
Completion: I

A = CC(C)C[C@H](NC(=O)[C@H](Cc1ccccc1)NC(=O)OC(C)(C)C)C(=O)N[C@@H](CC1CCCCC1)C(=O)/C(F)=C/S(=O)(=O)C(C)C
B = CC(C)CCS(=O)(=O)CC[C@H](O)[C@H](CC(C)C)NC(=O)[C@H](C)NC(=O)[C@H](Cc1ccccc1)NC(=O)OC(C)(C)C
C = CC(C)CC(NC(=O)C(Cc1ccccc1)NC(=O)OC(C)(C)C)C(=O)N[C@@H](CC1CCCCC1)[C@@H](O)C(F)(F)CS(=O)(=O)C(C)C (some centres unmarked)
D = CC(C)CC(NC(=O)C(Cc1ccccc1)NC(=O)OC(C)(C)C)C(=O)N[C@@H](CC1CCCCC1)[C@@H](O)C(F)=CS(=O)(=O)C(C)C (some centres unmarked)
E = CC(C)CCC(=O)NCC(F)(F)C(=O)[C@H](CC1CCCCC1)NC(=O)[C@H](CC(C)C)NC(=O)[C@H](Cc1ccccc1)NC(=O)OC(C)(C)C
Prompt: Rank the items in ascending order with respect to IC50. The reply should contain the labels ordered as requested.
Completion: E, D, C, A, B
